Record form. Attribute: EC50. Fill in for each entry.
Biological target: T1, human PMEL17 (Homo sapiens, UniProt P40967)
T1 construct: G-361 melanoma cell line expresses human PMEL17 at a lower level compared to the HKB11-human PMEL17 overexpressing cell line; endogenous in cells; host or cells: G-361 (human melanoma)
T1 sequence (P40967 25-661): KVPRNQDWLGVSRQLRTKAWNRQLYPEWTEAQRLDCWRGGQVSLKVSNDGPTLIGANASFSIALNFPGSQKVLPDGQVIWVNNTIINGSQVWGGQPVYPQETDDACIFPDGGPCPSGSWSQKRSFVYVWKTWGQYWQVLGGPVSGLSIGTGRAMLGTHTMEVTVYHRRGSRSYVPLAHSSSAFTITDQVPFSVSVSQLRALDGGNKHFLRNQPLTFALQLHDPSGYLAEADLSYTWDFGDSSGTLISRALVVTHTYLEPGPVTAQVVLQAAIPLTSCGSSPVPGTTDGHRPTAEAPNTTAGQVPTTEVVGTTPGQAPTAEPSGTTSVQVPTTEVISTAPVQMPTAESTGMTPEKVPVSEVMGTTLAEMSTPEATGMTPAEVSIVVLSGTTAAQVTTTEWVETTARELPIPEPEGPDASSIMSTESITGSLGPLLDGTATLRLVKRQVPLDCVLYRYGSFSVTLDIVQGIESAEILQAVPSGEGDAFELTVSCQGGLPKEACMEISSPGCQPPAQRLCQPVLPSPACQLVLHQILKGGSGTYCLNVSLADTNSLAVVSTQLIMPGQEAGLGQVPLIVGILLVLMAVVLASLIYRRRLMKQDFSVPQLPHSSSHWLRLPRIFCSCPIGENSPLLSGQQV
Assay: Apparent affinity by FACS titration of IgGs on G-361 melanoma cell line
Assay type: binding
Conditions: G-361, Alexa Fluor-labelled detection antibody; read-out: FACS EC50 (nM) G-361 (Alexa Fluor)
Numbers only, in nM.

Previously resolved entries follow.
INSERT INTO results (molecule, observed_value) VALUES
  ('Y010910: anti-PMEL17 antibody (IgG) (antibody, V domains shown) VH: EVQLVESGGGLVKPGGSLRLSCAASGFTFSNAWMSWVRQAPGKGLEWVGRIKSKTDAGTTDYAAPVKGRFTISRDDSKNTLYLQMNSLKTEDTAVYYCARVASPSAPGGFDYWGQGTLVTVSS VL: DIQMTQSPSSLSASVGDRVTITCRASQGISNYLAWYQQKPGKVPKLLIYAASTLQSGVPSRFSGSGSGTDFTLTISSLQPEDVATYYCQQSLFAPFTFGQGTKVEIK', 10),
  ('Y010900: anti-PMEL17 antibody (IgG) (antibody, V domains shown) VH: EVQLVESGGGLVKPGGSLRLSCAASGFTFSNAWMSWVRQAPGKGLEWVGRIKSKTDAGTTDYAAPVKGRFTISRDDSKNTLYLQMNSLKTEDTAVYYCARTIYPSAPSSSLDYWGQGTLVTVSS VL: DIQMTQSPSSLSASVGDRVTITCRASQGISNYLAWYQQKPGKVPKLLIYAASTLQSGVPSRFSGSGSGTDFTLTISSLQPEDVATYYCQQLIFFPLTFGQGTKVEIK', 1.3),
  ('MOR024353: anti-PMEL17 antibody (IgG) (antibody, V domains shown) VH: QVQLVQSGAEVKKPGSSVKVSCKASGGTFSDYAISWVRQAPGQGLEWMGGIIPIFGDANYAQKFQGRVTITADESTSTAYMELSSLRSEDTAVYYCAREGSSYFYMAYWGQGTLVTVSS VL: SYELTQPLSVSVALGQTARITCSGDNIGSKLASWYQQKPGQAPVLVIYDDSNRPSGIPERFSGSNSGNTATLTISRAQAGDEADYYCAATAGDRWAYVFGGGTKLTVL', 62.8),
  ('MOR024354: anti-PMEL17 antibody (IgG) (antibody, V domains shown) VH: QVQLLESGGGLVQPGGSLRLSCAASGFTFSSFGMSWVRQAPGKGLEWVSAISYSGSDTYYADSVKGRFTISRDNSKNTLYLQMNSLRAEDTAVYYCARDVGVMDYWGQGTLVTVSS VL: SYELTQPLSVSVALGQTARITCSGDNLGTYYAHWYQQKPGQAPVLVIYSQSHRPSGIPERFSGSNSGNTATLTISRAQAGDEADYYCGAWDAPSPELVFGGGTKLTVL', 1.7);

Q: // EC50 lookup, key: Y010903: anti-PMEL17 antibody (IgG) (antibody, V domains shown) VH: EVQLVESGGGLVKPGGSLRLSCAASGFTFSNAWMSWVRQAPGKGLEWVGRIKSKTDAGTTDYAAPVKGRFTISRDDSKNTLYLQMNSLKTEDTAVYYCARASHRLHSLFDVWGQGTLVTVSS VL: DIQMTQSPSTLSASVGDRVTITCRASQSISSWLAWYQQKPGKAPKLLIYDASSLESGVPSRFSGSGSGTEFTLTISSLQPEDFATYYCQQGLFYPHTFGQGTKVEIK
Ans: 3.2

Sourced from patent US11779649B2
